Reference for the values: patent US11214803B2

Test system: Yap1 mRNA
Assay: Antisense inhibition of human Yap1 in A-431 cells by cEt gapmers, single dose (Example 4, RTS4814)
Assay type: cell-based
Settings: Table 15; A-431 cells, 5,000 cells per well, free uptake, 2,000 nM, approximately 48 hours; RTS4814; normalized to RIBOGREEN; Yap1 mRNA relative to untreated control; * = targets amplicon region of primer probe set
Strand notation (5' to 3'): a small letter for the sugar, then the base; units joined by * are phosphorothioate-linked, units joined directly phosphodiester-linked; [ ] holds rarer units or linkages, { } end groups; capitals alone tell only the bases. k = constrained ethyl (cEt); [5mC] = 5-methylcytosine; d = 2'-deoxy (DNA)
property_measured: YAP1 (% UTC)

- substance: "1076449 (k[5mC]*k[5mC]*kT*dT*dA*dT*dA*dA*dT*dG*d[5mC]*dA*dA*kT*k[5mC]*k[5mC]; antisense) [Compound 1076449]"
  val: 2
- substance: "1075713 (kA*kA*kT*d[5mC]*dA*dA*d[5mC]*d[5mC]*dT*dT*dG*dT*dT*kA*kG*kA; antisense) [Compound 1075713]"
  val: 58
- substance: "1076417 (k[5mC]*kT*kT*dT*dA*d[5mC]*dA*d[5mC]*d[5mC]*dG*dA*dA*dA*kT*kG*kA; antisense) [Compound 1076417]"
  val: 42

----------
Experiment: Cynomolgus monkey tolerability, kidney and liver function markers (Example 34)
Settings: cynomolgus monkeys, 35 mg/kg subcutaneously, day 44

- substance: "1198440 (AAGTGTATGTCAGAAG; cEt, 2'-MOE, 5-methylcytosine, phosphorothioate modifications, further chemistry not given here) [compound 1198440]"
  LDL: "54 mg/dL"
- substance: "1198605 (GTAATATTGCAATCTG; modified gapmer, further chemistry not given here) [compound 1198605]"
  LDL: "57 mg/dL"
- substance: "1198439 (AGTGTATGTCAGAAGA; sugar, 5-methylcytosine, phosphorothioate modifications, further chemistry not given here) [compound 1198439]"
  LDL: "59 mg/dL"
- substance: "1197270 (TTAAAGTGTATGTCAG; cEt gapmer with 2'-OMe nucleoside, phosphorothioate, further chemistry not given here) [compound 1197270]"
  LDL: "48 mg/dL"
- substance: "958499 (ATTAGAGTATGTGGCA; 3-10-3 cEt gapmer, further chemistry not given here) [compound 958499]"
  LDL: "46 mg/dL"
- substance: "1198831 (CACTTTTACATTAGGA; chemically modified gapmer, further chemistry not given here) [compound 1198831]"
  LDL: "63 mg/dL"
- substance: "1198872 (TGTATGTCAGAAGAGT; chemically modified gapmer, further chemistry not given here) [compound 1198872]"
  LDL: "60 mg/dL"
- substance: "1076453 (GTAATATTGCAATCTG; 3-10-3 cEt gapmer, further chemistry not given here) [compound 1076453]"
  LDL: "66 mg/dL"
- substance: "1198728 (TATTAGAGTATGTGGC; modified gapmer, further chemistry not given here) [compound 1198728]"
  LDL: "57 mg/dL"
- substance: "1198623 (CTAAGTAAGGTTTCCC; modified gapmer, further chemistry not given here) [compound 1198623]"
  LDL: "50 mg/dL"
